The values you see were collected from the RNAGym collection of RNA variant scans (doi:10.7554/elife.80360).

B1: CPEB3 Ribozyme (parent)
chain: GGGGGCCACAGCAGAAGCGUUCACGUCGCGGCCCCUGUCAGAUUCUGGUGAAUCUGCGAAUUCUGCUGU

Variants of: B1
assay protocol: self-cleavage, relative activity (ratio to wild type); higher = more cleavage; co-transcriptional
Quick reference: self-cleavage of the listed items.
value kind: self-cleavage

G17C C18U: 0.169
G4C U53C: 0.239
G48U A51G: 0.959
G14A A51U: 0.75
U38G U55A: 0.196
C34U A59C: 0.661
U21A G48A: 1
A16G C22G: 0.0656
A13G A42U: 0.74
G1A C33U: 0.0123
A51G C63G: 0.772
G17A C29U: 0.858
G50U U55C: 0.766
C34G C57G: 0.332
C34A C57A: 0.255
A51U U69A: 1.01
U20A U55C: 0.118
A52U C66U: 0.973
G1C U21G: 0.244
G14C U53G: 0.397
U43G G68A: 0.948
A42U G56A: 0.799
